// data source = paper PMC7826789

tested on: TYK2(JH2domain-pseudokinase); settings: Compound Concentration (nM):1000;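 note: KINOMEscan scanMAX binding as percent activity remaining versus control; lower means stronger binding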

COMPOUND | Percent Control (%)
Cl.O=C(Nc1ccc(Oc2ccc3[nH]c(NC(=O)c4ccccc4)nc3c2)cc1)Nc1cc(C(F)(F)F)ccc1F [GW709042A] | 100
COc1ccccc1-c1cc(/C=C2\C(=O)Nc3ncc(Br)cc32)cc(Br)c1O [GW442130X] | 100
C/C(Nc1ccc(S(N)(=O)=O)cc1)=C1/C(=O)Nc2ccccc21 [GW335962X] | 100
COc1cccc(-n2ncc3c(N/N=C/c4ccncc4)ncnc32)c1 [GW784752X] | 11
Cl.O=C(Nc1ccc(Oc2ccc3[nH]c(NC(=O)c4ccco4)nc3c2)cc1)Nc1cc(C(F)(F)F)ccc1F [GW683134A] | 100
NS(=O)(=O)c1ccc(N/N=C2\C(=O)Nc3ccc(C(=O)NCCc4c[nH]cn4)cc32)cc1 [GW300660X] | 84

----------
The reader will find reported Percent Control values listed item by item below.
test system: EGFR(L861Q); conditions: Compound Concentration (nM):1000
ENDPOINT_NAME: Percent Control (%)

MOLECULE | UOM | MEAS_VALUE
COc1ccc(COc2ccc(Cc3cnc(N)nc3N)cc2OC)cc1 [GW632580X] | % | 61
Cl.O=S1CCN(Cc2ccc(-c3ccc4ncnc(Nc5ccc(OCc6ccccc6)c(F)c5)c4c3)o2)CC1 [GW576924A] | % | 0
COc1cc2ncn(-c3cc(O[C@H](C)c4ccccc4Cl)c(C(N)=O)s3)c2cc1OC [GSK237701A] | % | 97
C/C(Nc1ccc(S(N)(=O)=O)cc1)=C1/C(=O)Nc2ccccc21 [GW335962X] | % | 68

----------
tested on: PIK3CA(Q546K); details: Compound Concentration (nM):1000

COMPOUND | Percent Control (%)
CCS(=O)(=O)c1ccc(OC)c(Nc2ncc(-c3cccc(OC)c3)o2)c1 [GW580509X] | 100
COc1cc(/C=N/Nc2ncnc3[nH]ncc23)ccc1O [GW578748X] | 62
CN1CCN(C(=O)c2ccc(NC(=O)Nc3ccc(N(C)c4ccnc(Nc5ccc(CS(C)(=O)=O)cc5)n4)cc3)cc2)CC1.Cl [GW830263A] | 100
CCc1ccc(Oc2nccc(-c3c(-c4ccc(F)cc4)ncn3C3CCNCC3)n2)cc1 [SB-242719] | 90
O=C(Nc1n[nH]c2nc(-c3ccc(O)cc3)c(Br)cc12)C1CC1 [SB-725317] | 100
CCS(=O)(=O)c1ccc(OC)c(Nc2ncc(-c3cccc(F)c3)o2)c1 [GW621970X] | 100
COc1cc(C=NNc2ncnc3c2cnn3-c2ccccc2)ccc1O [GW513184X] | 100
CC1=C(C(=O)Nc2ccc3[nH]ncc3c2)C(c2ccc3ccccc3c2)CC(=O)N1 (stereo not drawn) [GSK270822A] | 86
Cc1cc(O)cc(C)c1/C=C/c1cncc(C(N)=O)c1 [GW435821X] | 100
C[C@@H](Oc1cc(-n2cnc3ccc(OC4CCN(C)CC4)cc32)sc1C(N)=O)c1ccccc1Cl [GSK579289A] | 100
COc1cc2ncnc(Nc3ccc4c(cnn4Cc4ccccc4)c3)c2cc1OC.Cl [GW282449A] | 100
NS(=O)(=O)c1ccc(N/N=C2\C(=O)Nc3ccc(C(=O)NCCc4c[nH]cn4)cc32)cc1 [GW300660X] | 100

----------
test system: PKN2; settings: Compound Concentration (nM):1000
Criterion: Percent Control strictly under 90%. Met: YES. Not met: NO.

COMPOUND | QUALITATIVE_LABEL
Cl.O=C(Nc1ccc(Oc2ccc3[nH]c(NC(=O)c4ccccc4)nc3c2)cc1)Nc1cc(C(F)(F)F)ccc1F [GW709042A] | YES
C[C@@H](Oc1cc(-n2cnc3ccc(OC4CCN(C)CC4)cc32)sc1C(N)=O)c1ccccc1Cl [GSK579289A] | YES
COc1ccc2c(-c3ccnc(Nc4cccc(OC(F)(F)F)c4)n3)cnn2n1 [GW810372X] | YES
NS(=O)(=O)c1ccc(Nc2ncc(-c3ccccc3)o2)cc1 [GW572399X] | NO
CC1=C(C(=O)Nc2ccc3[nH]ncc3c2)C(c2ccc3ccccc3c2)CC(=O)N1 (stereo not drawn) [GSK270822A] | YES

----------
system: DCAMKL1; construct: gene DCLK1; settings: Compound Concentration (nM):1000
Criterion: Percent Control strictly under 90%. Met: Fulfilled. Not met: Not fulfilled.

COMPOUND | TARGET_OR_SYSTEM | QUALITATIVE_LABEL
COc1cc(/C=N/Nc2ncnc3[nH]ncc23)ccc1O [GW578748X] | DCAMKL1 | Fulfilled
NS(=O)(=O)c1ccc(N/N=C2\C(=O)Nc3ccc(C(=O)NCc4ccncc4)cc32)cc1 [GW300657X] | DCAMKL1 | Fulfilled
COc1ccc2c(-c3ccnc(Nc4cccc(OC(F)(F)F)c4)n3)cnn2n1 [GW810372X] | DCAMKL1 | Not fulfilled
NS(=O)(=O)c1ccc(N/N=C2\C(=O)Nc3ccc(Cl)cc32)cc1 [GW280670X] | DCAMKL1 | Not fulfilled

----------
The reader will find reported Percent Control values listed item by item below.
tested on: NEK3; conditions: Compound Concentration (nM):1000

COMPOUND | Percent Control
O=C(Nc1n[nH]c2nc(-c3ccc(O)cc3)c(Br)cc12)C1CC1 | 100%
Cl.O=C(Nc1ccc(Oc2ccc3[nH]c(NC(=O)c4ccccc4)nc3c2)cc1)Nc1cc(C(F)(F)F)ccc1F [GW709042A] | 98%
COc1ccc2cc(-c3c(-c4ccncc4)nc(-c4ccc(S(C)(=O)=O)cc4C)n3C)ccc2c1 | 65%
C/C(Nc1ccc(S(N)(=O)=O)cc1)=C1/C(=O)Nc2ccccc21 [GW335962X] | 96%
COc1cccc(-n2ncc3c(N/N=C/c4ccncc4)ncnc32)c1 [GW784752X] | 86%
COC(=O)Nc1nc2ccc(Oc3ccc(NC(=O)Nc4cc(C(F)(F)F)ccc4F)cc3)cc2s1.Cl [GW693917A] | 87%
CCS(=O)(=O)c1ccc(OC)c(Nc2ncc(-c3cccc(OC)c3)o2)c1 [GW580509X] | 100%
NS(=O)(=O)c1ccc(N/N=C2\C(=O)Nc3ccc(C(=O)NCCc4c[nH]cn4)cc32)cc1 [GW300660X] | 78%
Nc1ncnc2occ(-c3ccc(NC(=O)Nc4cc(C(F)(F)F)ccc4F)cc3)c12 [GW770249X] | 98%
CC(C)COC(=O)c1ccc2c(c1)/C(=C/Nc1ccc(S(N)(=O)=O)cc1)C(=O)N2 [GW416981X] | 95%
COc1cc(C)c(N(C)C(=O)CN(C)C)cc1Nc1nc(Nc2cccc(F)c2C(N)=O)c2cc[nH]c2n1 | 94%
NS(=O)(=O)c1ccc(Nc2ncc(-c3ccccc3)o2)cc1 [GW572399X] | 84%
C[C@@H](Oc1cc(-n2cnc3ccc(OC4CCN(C)CC4)cc32)sc1C(N)=O)c1ccccc1Cl [GSK579289A] | 92%
CCS(=O)(=O)c1ccc(OC)c(Nc2ncc(-c3cccc(F)c3)o2)c1 [GW621970X] | 100%
Cl.c1ccc(Cc2nc3ccc(Nc4ncnc5ccccc45)cc3[nH]2)cc1 [GR269666A] | 100%
NS(=O)(=O)c1ccc(N/N=C2\C(=O)Nc3ccc(C(=O)NCc4ccncc4)cc32)cc1 [GW300657X] | 84%
COc1ccc(COc2ccc(Cc3cnc(N)nc3N)cc2OC)cc1 [GW632580X] | 97%

----------
The reader will find reported Percent Control values listed item by item below.
system: CDK3; conditions: Compound Concentration (nM):1000
ENDPOINT_NAME: Percent Control (%)

COMPOUND | ENDPOINT_NAME | UOM | MEAS_VALUE
COc1cc(C=NNc2ncnc3c2cnn3-c2ccccc2)ccc1O [GW513184X] | Percent Control | % | 97
Nc1ncnc2occ(-c3ccc(NC(=O)Nc4cc(C(F)(F)F)ccc4F)cc3)c12 [GW770249X] | Percent Control | % | 39
Cl.c1ccc(Cc2nc3ccc(Nc4ncnc5ccccc45)cc3[nH]2)cc1 [GR269666A] | Percent Control | % | 100
NS(=O)(=O)c1ccc(N/N=C2\C(=O)Nc3ccc(C(=O)NCCc4c[nH]cn4)cc32)cc1 [GW300660X] | Percent Control | % | 100
CCS(=O)(=O)c1ccc(OC)c(Nc2ncc(-c3cccc(OC)c3)o2)c1 [GW580509X] | Percent Control | % | 100

----------
The reader will find reported Percent Control values listed item by item below.
test system: ITK; conditions: Compound Concentration (nM):1000

COMPOUND | Percent Control, %
O=C(Nc1n[nH]c2nc(-c3ccc(O)cc3)c(Br)cc12)C1CC1 | 100
Cl.O=C(O[C@H]1CN[C@H](C#Cc2cc3ncnc(Nc4ccc5c(cnn5Cc5ccccc5)c4)c3s2)C1)N1CCOCC1 [GSK200398A] | 100
COc1cccc(-n2ncc3c(N/N=C/c4ccncc4)ncnc32)c1 [GW784752X] | 100
CN(C)CCNC(=O)Nc1ccc(N(C)c2ccnc(Nc3ccc(CS(C)(=O)=O)cc3)n2)cc1.Cl [GW830900A] | 83
COC(=O)Nc1nc2ccc(Oc3ccc(NC(=O)Nc4cc(C(F)(F)F)ccc4F)cc3)cc2s1.Cl [GW693917A] | 74
Cl.O=S1CCN(Cc2ccc(-c3ccc4ncnc(Nc5ccc(OCc6ccccc6)c(F)c5)c4c3)o2)CC1 [GW576924A] | 100
CCS(=O)(=O)c1ccc(OC)c(Nc2ncc(-c3cccc(F)c3)o2)c1 [GW621970X] | 100
CC1=C(C(=O)Nc2ccc3[nH]ncc3c2)C(c2ccc(Cl)c(Cl)c2)CC(=O)N1 (stereo not shown) [GSK299115A] | 74
CCn1c(-c2nonc2N)nc2c(C#CC(C)(C)O)nc(OCCNC)cc21.Cl | 100
COc1ccccc1-c1cc(/C=C2\C(=O)Nc3ncc(Br)cc32)cc(Br)c1O [GW442130X] | 100
COc1cc(C)c(N(C)C(=O)CN(C)C)cc1Nc1nc(Nc2cccc(F)c2C(N)=O)c2cc[nH]c2n1 | 99
Nc1ncnc2occ(-c3ccc(NC(=O)Nc4cc(C(F)(F)F)ccc4F)cc3)c12 [GW770249X] | 100
CCc1ccc(Oc2nccc(-c3c(-c4ccc(F)cc4)ncn3C3CCNCC3)n2)cc1 | 100
